Test system: Staphylococcus aureus ATCC 29213
ASSAY_TEXT: Antimicrobial microplate assay (modified CLSI)
Assay type: cell-based
CONDITION_DESCRIPTION: ATCC29213, S. aureus
VALUE_KIND: IC50 (µM)
// note: answer is a bare numeric in µM

Task: Under Staphylococcus aureus ATCC 29213, report IC50 for COc1cc(/C=C/c2ccc(O)c(CC=C(C)C)c2)cc(OC)c1 [Compound 11]
Result: 13.1

Task: Answer briefly: IC50 recorded on Staphylococcus aureus ATCC 29213 for COc1cc(/C=C/c2ccc(O)cc2)cc(OC)c1C [Compound 16]
Result: 20.4

Task: Check Staphylococcus aureus ATCC 29213 data and give IC50 for COc1cc(/C=C\c2ccc(O)c(CC=C(C)C)c2)cc(OC)c1 [Compound 12] .
Result: 17
